tested on: MS2 coat protein; experiment: apparent KD of MS2 coat protein; designed switch direction (-1 OFF switch, 1 ON switch): 1; higher = weaker reporter binding; details: input ligand: microRNA oligo, concentration not stated
apparent KD of MS2 coat protein of 90 nM or higher: yes. Under 90 nM: no.

GUUAGGAAUCUAGCAUACAUGAGGAUCACCCAUGUUAGUGGGAAGGAUAUGGUACAGAAACUGUACCAGAAGGUCUUAUUGUUU [Omei SS(NG) 3 AV12] (Eterna round: R96, puzzle: Same State NG 3); yes
UAAAUAAUGAUAGGAUAUACAUGAGGAAUUCUCGUAGAAGGAUCAUGACAUGAGGAUCACCCAUGUAACGCUCGAAAGAGCGUA [Mat - Same State NG 1 - JL mod - D40] (Eterna round: R96, puzzle: Same State NG 1); yes
CCGUAAAAUGGAGGAUAUGGAGCCUUAUUGGCUCCAGAAGGUCAUAAAACAUGAGGAUCACCCAUGUCGGCGGUCAAUAGACCG [Eli NG1ss - 78] (Eterna round: R96, puzzle: Same State NG 1); no

Next item in the queue.
**Q:** Record GUUACAUGAGGAUCACCCAUGUAUGUGUGGGAGUAAGUGUCUUAGGAUAUCUAUCAUUUAAUAUAAGAGAAGGAAGAUUGUUGU [JMF's solution 96] (Eterna round: R96, puzzle: Same State NG 3) ; criterion: apparent KD of MS2 coat protein no lower than 90 nM. Met?
**A:** no
